Every entry's value here was drawn from paper PMC7463734.

Target: RBD1 of MSI1 (Homo sapiens)
Construct: made in house; host or cells: Escherichia coli
Sequence (O43347 20-107): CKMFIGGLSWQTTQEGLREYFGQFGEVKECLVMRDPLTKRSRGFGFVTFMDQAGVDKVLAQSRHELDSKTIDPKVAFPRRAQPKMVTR
Experiment: FP dose-response (competition) disrupting RBD1-Numb^FITC complex
Type: binding
pKi: −log10 of the molar value.

- Compound: "CC[C@H](C)/C=C(C)/C=C/C1=CC2=C(Cl)C(=O)C(C)(O)C(=O)C2=CO1 (stereo partly shown)"
  pKi: 5.57

====

Molecular target: RBD1 of MSI1 (Homo sapiens)
Construct: made in house; host or cells: Escherichia coli
Assay: FP dose-response (competition) disrupting RBD1-Numb^FITC complex
Type: binding
Conditions: FP dose-response, RBD1 of MSI1; read-out: IC50
pIC50: −log10 of the molar value.

- Compound: "CC[C@H](C)/C=C(C)/C=C/C1=CC2=C(Cl)C(=O)C(C)(OC(C)=O)C(=O)C2=CO1 (some centres unmarked)"
  pIC50: 5.40
- Compound: "CC[C@H](C)/C=C(C)/C=C/C1=CC2=C(Cl)C(=O)[C@](C)(OC(C)=O)C(=O)C2=CO1"
  pIC50: 5.15
- Compound: "CC[C@H](C)/C=C(C)/C=C/C1=CC2=C(Br)C(=O)C(C)(OC(C)=O)C(=O)C2=CO1 (some centres unmarked)"
  pIC50: 5.55
- Compound: "CC[C@H](C)/C=C(C)/C=C/C1=CC2=CC(=O)C(C)(O)C(=O)C2=CO1 (some centres unmarked)"
  pIC50: 5.41
- Compound: "CC[C@H](C)/C=C(C)/C=C/C1=CC2=C(Br)C(=O)C(C)(O)C(=O)C2=CO1 (some centres unmarked)"
  pIC50: 5.35
